- Experimental target: Protein kinase C beta type (Homo sapiens) (UniProt P05771)
- Sequence (P05771 2-671 limits assumed): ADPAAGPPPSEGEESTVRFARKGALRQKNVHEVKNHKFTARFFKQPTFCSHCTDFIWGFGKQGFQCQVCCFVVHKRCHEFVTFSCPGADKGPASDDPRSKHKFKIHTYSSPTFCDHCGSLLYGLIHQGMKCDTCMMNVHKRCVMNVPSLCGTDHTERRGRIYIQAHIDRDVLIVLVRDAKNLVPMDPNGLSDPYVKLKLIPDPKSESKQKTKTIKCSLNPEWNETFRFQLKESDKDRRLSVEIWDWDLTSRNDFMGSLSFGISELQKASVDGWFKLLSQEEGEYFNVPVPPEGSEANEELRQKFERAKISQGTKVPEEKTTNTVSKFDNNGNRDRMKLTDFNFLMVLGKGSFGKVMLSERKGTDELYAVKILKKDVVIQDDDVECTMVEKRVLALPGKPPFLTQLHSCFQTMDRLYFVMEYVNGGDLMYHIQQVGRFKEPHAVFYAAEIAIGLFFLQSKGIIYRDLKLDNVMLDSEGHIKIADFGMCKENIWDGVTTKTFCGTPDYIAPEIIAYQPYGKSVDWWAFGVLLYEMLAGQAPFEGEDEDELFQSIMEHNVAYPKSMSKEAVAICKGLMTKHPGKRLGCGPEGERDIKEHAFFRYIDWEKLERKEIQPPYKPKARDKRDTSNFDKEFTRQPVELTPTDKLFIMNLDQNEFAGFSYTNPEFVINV
- Cond: at 10 µM
Reported property: residual activity (%)
Give the value in % but do not write % after it.

# get_value(readout='residual activity', item= CO[C@H]1[C@@H](OC)C[C@H](C)[C@@H](OC)C2=CC(=O)C=C(NC(=O)/C(C)=C/C=C/[C@H](OC)[C@@H](OC(N)=O)/C(C)=C/[C@@H]1C)C2=O ) 121

residual activity lookup needed for Cc1ccc(NC2=CC(=O)c3sc(C)nc3C2=O)cc1 , thanks. 88

Given COc1ccc(C(=O)Nc2sc3c(c2C(N)=O)CCCC3)cc1OC , state its recorded residual activity. 94

# query: residual activity of entry CC(C)n1cnc2c(NCc3ccccc3)nc(NCCCO)nc21 105

Item under review: Cc1cc2ncc(-c3ccccc3)nc2cc1C . Reported residual activity? 131

Query: residual activity; subject: COc1cccc(-c2cc(=O)c3ccccc3o2)c1N 105

Field request: residual activity | item: N#CC(C#N)=C(N)/C(C#N)=C/c1ccc(O)cc1 122

// residual activity lookup, key: CO[C@H]1C[C@@H]2CC[C@@H](C)[C@@](O)(O2)C(=O)C(=O)N2CCCC[C@H]2C(=O)O[C@H]([C@H](C)C[C@@H]2CC[C@@H](O)[C@H](OC)C2)CC(=O)[C@H](C)/C=C(\C)[C@@H](O)[C@@H](OC)C(=O)[C@H](C)C[C@H](C)/C=C/C=C/C=C/1C 106

Please report the recorded residual activity for COc1cc2ncc(-c3ccccc3)nc2cc1OC . 124

Endpoint output: residual activity of Cc1nc(-c2ccccc2)c(-c2ccncc2)o1 . Value? 95

Consider the compound Cc1ccc(S(=O)(=O)/C=C/C#N)cc1 and give its measured residual activity. 102

Query: residual activity; subject: O=C1NC(=O)/C(=C/c2ccc3c(c2)OC(F)(F)O3)S1 126

# residual activity lookup, item COc1cc2ncnc(N3CCN(C(=O)Nc4ccc(Oc5ccccc5)cc4)CC3)c2cc1OC 97

I have this compound here, O=C(Nc1cccc(Nc2nccc(Nc3cccc(C(F)(F)F)c3)n2)c1)C1CC1 , and I need its recorded residual activity. 107

What residual activity value was documented for this compound, Cn1cnc2cc3c(Nc4cccc(Br)c4)ncnc3cc21 ? 85

Request the reported residual activity associated with COc1ccc(CNc2nc(N(CCO)CCO)nc3c2ncn3C(C)C)cc1 86

Suppose we examine the compound CCN(CC)CCCCN1c2ccccc2Oc2ccc(Cl)cc21 ; what residual activity value has been reported? 98

Which value of residual activity has been reported for O=c1c2ccccc2[nH]c(=S)n1CCN1CCC(=C(c2ccc(F)cc2)c2ccc(F)cc2)CC1 in the records? 109

Which residual activity is listed for Nc1n[nH]c2nnc(-c3c(-c4ccccc4)nn4ccccc34)cc12 ? 96

Given the compound CN(C)c1ccc(/C=C2\C(=O)Nc3ccccc32)cc1 , what is its reported residual activity? 112

Data request, read-out residual activity, for c1ccc2c(-c3ccncc3)c[nH]c2c1 64

What value of residual activity has been reported for the following compound? CCC(=O)Nc1ccc2ncnc(Nc3cccc(Br)c3)c2c1 99

Which residual activity is listed for O=c1cc(-c2cccc3c2Sc2ccccc2S3)oc(N2CCOCC2)c1 ? 100

Record request: residual activity value, item N#C/C(=C(\N)Sc1ccc(N)cc1)c1ccccc1C(F)(F)F 104

I would be grateful if you could share the reported residual activity for COc1cc2ncnc(Nc3ccc(O)c(Br)c3)c2cc1OC . 83

Data request, read-out residual activity, for CC(C)n1cnc2/c(=N/c3cccc(Cl)c3)nc(NCCO)[nH]c21 89

# get_value(readout='residual activity', item= CC#CC(=O)Nc1cc2c(Nc3ccc(F)c(Cl)c3)ncnc2cn1 ) 103

What value of measured residual activity is listed for O=[N+]([O-])c1ccc(-c2nc(-c3ccc(F)cc3)c(-c3ccncc3)[nH]2)cc1 ? 97

Recorded residual activity for CC(=O)O/N=C1\C(=C2\C(=O)Nc3cc(Br)ccc32)Nc2ccccc21 , please? 122

// lookup residual activity for Oc1n[nH]c2nnc(-c3c(-c4ccccc4)nn4ccccc34)cc12 98

I'd like to know its residual activity. The compound in question is Cn1nc2c3c(cccc31)C(=O)c1ccccc1-2 104

Can you look up the measured residual activity of COc1ccc(OC)c2c(=S)c3ccccc3[nH]c12 for me? 115
